- Test system: MATIN
- Assay name: Herbicidal pre-emergence action 2b (doubly sown, 1280 g/ha)
- Format: in vivo, Matricaria inodora
- Test settings: doubly sown pots, dosage 1280 g/ha, visual scoring after about 3 weeks
Readout name: Pre-emergence action at 1280 g/ha against MATIN in % (%)
Lab book: enter the figure in %, no units written.

Solved entries (count: 3):
COC(=O)[C@@H](C)Oc1nn(-c2cnccn2)c(-c2ccc(F)c(F)c2)c1C#N    100
COC(=O)COc1nn(-c2cnccn2)c(-c2ccnc(F)c2)c1Cl    90
O=C(O)COc1nn(-c2cnccn2)c(-c2ccc(F)c(F)c2)c1Br    100

Query: Consider the molecule CCOC(=O)COc1nn(-c2cnccn2)c(-c2ccccc2)c1Br and give its recorded Pre-emergence action at 1280 g/ha against MATIN in %.
Response: 100

Query: Consider the molecule CCOC(=O)COc1nn(-c2nccnc2F)c(-c2ccc(F)c(F)c2)c1Br and give its recorded Pre-emergence action at 1280 g/ha against MATIN in %.
Response: 100

---

- System: MATIN
- Assay name: Herbicidal pre-emergence action 2b (doubly sown, 1280 g/ha)
- Assay type: in vivo, Matricaria inodora
- Test settings: doubly sown pots, dosage 1280 g/ha, visual scoring after about 3 weeks
Reported Pre-emergence action at 1280 g/ha against MATIN in % values are given for each entry in this list.
Lab book: enter the figure in %, no units written.

Solved entries (count: 5):
CC(Oc1nn(-c2cnccn2)c(-c2ccc(F)c(F)c2)c1Br)C(=O)O (centres unmarked)    100
CC(C)=NOC(=O)COc1nn(-c2cnccn2)c(-c2ccc(F)nc2)c1Br    100
C=CCNC(=O)COc1nn(-c2cnccn2)c(-c2cccc(F)c2)c1Br    100
COC(=O)[C@@H](C)Oc1nn(-c2cnccn2)c(-c2cnc(F)c(F)c2)c1Br    90
COC(=O)C(C)Oc1nn(-c2cnccn2)c(-c2ccnc(F)c2)c1Cl (racemic)    90

Query: Consider the compound O=C(O)COc1nn(-c2cnccn2)c(-c2cccc(F)c2)c1Br and give its recorded Pre-emergence action at 1280 g/ha against MATIN in %.
Response: 100

Query: Consider the compound CCOC(=O)COc1nn(-c2cnccn2)c(-c2ccc(F)nc2)c1[N+](=O)[O-] and give its recorded Pre-emergence action at 1280 g/ha against MATIN in %.
Response: 90

Query: Consider the compound COC(=O)C(C)Oc1nn(-c2cnccn2)c(-c2ccc(F)nc2)c1Br (racemic) and give its recorded Pre-emergence action at 1280 g/ha against MATIN in %.
Response: 90

---

- System: MATIN
- Assay name: Herbicidal post-emergence action 1a (greenhouse pots, visual rating)
- Type: in vivo, Matricaria inodora
- Test settings: dosage 80 g/ha, visual rating about 3 weeks after treatment
Readout name: Post-emergence action against MATIN in % (%)
Lab book: enter the figure in %, no units written.

Solved entries (count: 2):
CCOC(=O)COc1nn(-c2cnccn2)c(-c2ccccc2)c1Br    80
COC(=O)COc1nn(-c2cnccn2)c(-c2cncc(F)c2)c1Br    90

Query: Consider the molecule COC(=O)[C@@H](C)Oc1nn(-c2cnccn2)c(-c2cncc(F)c2)c1Cl and give its recorded Post-emergence action against MATIN in %.
Response: 80

Query: Consider the molecule C[C@@H](Oc1nn(-c2cnccn2)c(-c2cncc(F)c2)c1Br)C(=O)O and give its recorded Post-emergence action against MATIN in %.
Response: 80

Query: Consider the molecule C[C@@H](Oc1nn(-c2cnccn2)c(-c2cncc(F)c2)c1Cl)C(=O)O and give its recorded Post-emergence action against MATIN in %.
Response: 90

---

Reported Post-emergence action at 1280 g/ha against POAAN in % values are given for each entry in this list.
- Test system: POAAN
- Assay name: Herbicidal post-emergence action 1b (twin sowing, 1280 g/ha)
- Format: in vivo, Poa annua
- Test settings: dosage 1280 g/ha, visual rating about 3 weeks after treatment
Lab book: enter the figure in %, no units written.

Solved entries (count: 5):
CCOC(=O)COc1nn(-c2cnccn2)c(-c2ccc(F)nc2)c1Cl    100
O=C(O)COc1nn(-c2cnccn2)c(-c2cccc(F)c2)c1Br    90
COC(=O)C(C)Oc1nn(-c2cnccn2)c(-c2ccc(F)c(F)c2)c1C#N (racemic)    100
COC(=O)[C@H](C)Oc1nn(-c2cnccn2)c(-c2cccc(F)c2)c1Br    100
COC(=O)[C@@H](C)Oc1nn(-c2cnccn2)c(-c2cncnc2)c1Br    100

Query: Consider the molecule COC(=O)C(C)Oc1nn(-c2cnccn2)c(-c2ccnc(F)c2)c1Cl (racemic) and give its recorded Post-emergence action at 1280 g/ha against POAAN in %.
Response: 100

Query: Consider the molecule CCOC(=O)COc1nn(-c2cnccn2)c(-c2cccc(F)c2)c1Br and give its recorded Post-emergence action at 1280 g/ha against POAAN in %.
Response: 90

Query: Consider the molecule COC(=O)C(C)Oc1nn(-c2cnccn2)c(-c2ccc(F)nc2)c1Br (racemic) and give its recorded Post-emergence action at 1280 g/ha against POAAN in %.
Response: 100

---

- System: MATIN
- Assay name: Herbicidal post-emergence action 1b (twin sowing, 1280 g/ha)
- Type: in vivo, Matricaria inodora
- Test settings: dosage 1280 g/ha, visual rating about 3 weeks after treatment
- Description: [table] b) Seeds of mono- and dicotyledonous weed plants are placed in plastic pots in sandy loam soil (twin sowing with one species each of mono- or dicotyledonous weed plants per pot), covered with soil and cultivated in a greenhouse under controlled growth conditions. 2 to 3 weeks after sowing, the test plants are treated at the one-leaf stage. […]
Reported Post-emergence action at 1280 g/ha against MATIN in % values are given for each entry in this list.
Lab book: enter the figure in %, no units written.

Solved entries (count: 10):
COC(=O)[C@H](C)Oc1nn(-c2cnccn2)c(-c2cccc(F)c2)c1Br    90
COC(=O)C(C)Oc1nn(-c2cnccn2)c(-c2ccc(F)nc2)c1Br (racemic)    90
O=C(O)COc1nn(-c2cnccn2)c(-c2ccc(F)nc2)c1Br    100
C[C@H](Oc1nn(-c2cnccn2)c(-c2cncc(F)c2)c1Br)C(=O)O    90
COCCOCCOC(=O)COc1nn(-c2cnccn2)c(-c2ccc(F)nc2)c1Br    100
COC(=O)COc1nn(-c2cnccn2)c(-c2ccnc(F)c2)c1Cl    90
COC(=O)C(C)Oc1nn(-c2cnccn2)c(-c2ccc(F)c(F)c2)c1C#N (racemic)    90
CCOC(=O)COc1nn(-c2nccnc2Cl)c(-c2ccc(F)nc2)c1Br    100
CCOC(=O)COc1nn(-c2cnccn2)c(-c2ccccc2)c1Br    90
O=C(O)COc1nn(-c2cnccn2)c(-c2cccc(F)c2)c1Br    90

Query: Consider the compound COC(=O)[C@@H](C)Oc1nn(-c2cnccn2)c(-c2ccnc(F)c2)c1Br and give its recorded Post-emergence action at 1280 g/ha against MATIN in %.
Response: 90

Query: Consider the compound COC(=O)COc1nn(-c2cnccn2)c(-c2cnc(F)c(F)c2)c1Br and give its recorded Post-emergence action at 1280 g/ha against MATIN in %.
Response: 100

Query: Consider the compound COC(=O)[C@@H](C)Oc1nn(-c2cnccn2)c(-c2cnc(F)c(F)c2)c1Br and give its recorded Post-emergence action at 1280 g/ha against MATIN in %.
Response: 100

---

- System: SETVI
- Assay name: Herbicidal pre-emergence action 2a (greenhouse pots, visual scoring)
- Format: in vivo, Setaria viridis
- Test settings: dosage 320 g/ha, visual scoring after about 3 weeks vs untreated controls
Reported Pre-emergence action against SETVI in % values are given for each entry in this list.
Lab book: enter the figure in %, no units written.

Solved entries (count: 4):
CN(C)S(=O)(=O)NC(=O)COc1nn(-c2cnccn2)c(-c2ccc(F)nc2)c1Br    100
COC(=O)COc1nn(-c2cnccn2)c(-c2ccc(F)nc2)c1Br    100
COC(=O)C(C)Oc1nn(-c2cnccn2)c(-c2ccnc(F)c2)c1Cl (racemic)    90
CCOC(=O)COc1nn(-c2cnccn2)c(-c2cncc(F)c2)c1Cl    100

Query: Consider the molecule C[C@@H](Oc1nn(-c2cnccn2)c(-c2cccc(F)c2)c1Br)C(=O)O and give its recorded Pre-emergence action against SETVI in %.
Response: 100

Query: Consider the molecule C[C@@H](Oc1nn(-c2cnccn2)c(-c2cncc(F)c2)c1Cl)C(=O)O and give its recorded Pre-emergence action against SETVI in %.
Response: 100

Query: Consider the molecule O=C(O)COc1nn(-c2cnccn2)c(-c2cncc(F)c2)c1Br and give its recorded Pre-emergence action against SETVI in %.
Response: 100

Query: Consider the molecule COC(=O)[C@H](C)Oc1nn(-c2cnccn2)c(-c2cccc(F)c2)c1Br and give its recorded Pre-emergence action against SETVI in %.
Response: 90
